Just for reference, PubChem BioAssay is where these values come from.

Experiment: RAM signaling pathway blockade in yeast – S. cerevisiae, Pdr1DBD-CYC8 efflux-inhibited sensitized strain, primary screen (AID 1298);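 further: 0% = DMSO untreated cells without growth and 100% = 10 µM 1-NA-PP1 full growth; higher means more yeast growth rescued from 5-FOA killing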
Conditions: S. cerevisiae cbk1-as DSE1-URA3 strain, 5-FOA growth OD615, 2 d; at 50 µM; hits give high values
I'd be grateful if you could share measured RAM network inhibition for these entries.
Express it in %; write the number only.

Record summary for CC1(C)OC(=O)C(=C2CCCN2)C(=O)O1 : reported RAM network inhibition = 6.12

Given item O=C(C1CCCN(S(=O)(=O)c2cccc3cccnc23)C1)N1CCN(c2ccccc2F)CC1 (stereo unspecified) , the value recorded as its RAM network inhibition is 2.98

response.value for Clc1ccc(-n2ncc3c(NCC4CCCO4)ncnc32)cc1 (stereo unspecified) (field: RAM network inhibition) = 8.53

The measured RAM network inhibition associated with Cc1cc(Nc2ccc(F)c(Cl)c2)n2nc(C)nc2n1 reads 0.68

The recorded RAM network inhibition for entry CCOC(=O)C1CCN(CCC(=O)Nc2cccc(Cl)c2C)CC1 equals 2.35

Lab book: RAM network inhibition of O=C(Oc1c(Cl)cc(Cl)c2cccnc12)N1CCOCC1 noted as 0.25

Cc1cccc(Cn2c(N(C)Cc3ccccc3)nc3c2c(=O)[nH]c(=O)n3C)c1 yielded RAM network inhibition of 2.26

Looking up CCOC(=O)c1ccc(NC(=O)CSc2nnc(Cn3c(=O)sc4ccccc43)n2C)cc1 , I found its RAM network inhibition recorded as 3.59

Summary for this molecule, CN(C)C(=O)c1nnc(Cc2ccc(Cl)cc2)o1 : RAM network inhibition is 7.05

Lab book: RAM network inhibition of CCOc1ccc(C2CC(c3ccc(CC)cc3)Nc3nc(N)nn32)cc1 (stereo unspecified) noted as 8.15

Noted for CN1CCN(Cc2ccc(OCc3ccccc3)cc2)CC1 : its RAM network inhibition reads -0.47
